- assay.target: dipalmitoyl phosphatidylcholine (DPPC)
- experiment.notes: Plasmon resonance (Biacore 3000) binding of lipid liposomes to peptide film
- run.conditions: DPPC liposomes over peptide film on CM5 chip, 37° C.; read-out: dissociation constant KD (koff/kon)
measured.parameter: Kd

q: What does the record list as Kd for FPIPLPYCWLCRALIKRIQAMIPKGGRMLPQLVCRLVLRCS [Super Mini-B] ?
a: 769 nM
